Entry source: patent US11925690B2

assay.system: Brd2 (Homo sapiens)
experiment: Time-dependent BET degradation, immunoblot
Assay type: cell-based
run.parameters: HEK293, Brd2, 1 μM, 0-24 hrs
quantity.kind: Dmax at 1 µM (%)

Some compounds with recorded Dmax at 1 µM:
| compound | Dmax at 1 µM / % |
| --- | --- |
| Cc1sc2c(c1C)C(c1ccc(Cl)cc1)=N[C@@H](CC(=O)NCCCCNC(=O)c1cc(SC(=O)c3ccccc3)c3ncc(C(=O)NCCc4nccs4)cc3c1)c1nnc(C)n1-2 [Example 11JQ16] | 75 |
| Cc1sc2c(c1C)C(c1ccc(Cl)cc1)=N[C@@H](CC(=O)NCCOCCNC(=O)c1cc(S)c3ncc(C(=O)NCCc4nccs4)cc3c1)c1nnc(C)n1-2 [Example 11JQ1] | 60 |

[P] Cc1sc2c(c1C)C(c1ccc(Cl)cc1)=N[C@@H](CC(=O)NCCCCNC(=O)c1cc(S)c3ncc(C(=O)NCCc4nccs4)cc3c1)c1nnc(C)n1-2 [Example 11JQ7]
[Q] Cc1sc2c(c1C)C(c1ccc(Cl)cc1)=N[C@@H](CC(=O)NCCOCCNC(=O)c1cc(SC(=O)c3ccccc3)c3ncc(C(=O)NCCc4nccs4)cc3c1)c1nnc(C)n1-2 [Example 11JQ15]
Please let me know which one, P or Q , has a lower measured Dmax at 1 µM value. Provide the label of your selected option as the answer. Q

====

Entries and their Dmax values follow.
assay.system: Brd3 (Homo sapiens)
Sequence (Q15059 whole entry): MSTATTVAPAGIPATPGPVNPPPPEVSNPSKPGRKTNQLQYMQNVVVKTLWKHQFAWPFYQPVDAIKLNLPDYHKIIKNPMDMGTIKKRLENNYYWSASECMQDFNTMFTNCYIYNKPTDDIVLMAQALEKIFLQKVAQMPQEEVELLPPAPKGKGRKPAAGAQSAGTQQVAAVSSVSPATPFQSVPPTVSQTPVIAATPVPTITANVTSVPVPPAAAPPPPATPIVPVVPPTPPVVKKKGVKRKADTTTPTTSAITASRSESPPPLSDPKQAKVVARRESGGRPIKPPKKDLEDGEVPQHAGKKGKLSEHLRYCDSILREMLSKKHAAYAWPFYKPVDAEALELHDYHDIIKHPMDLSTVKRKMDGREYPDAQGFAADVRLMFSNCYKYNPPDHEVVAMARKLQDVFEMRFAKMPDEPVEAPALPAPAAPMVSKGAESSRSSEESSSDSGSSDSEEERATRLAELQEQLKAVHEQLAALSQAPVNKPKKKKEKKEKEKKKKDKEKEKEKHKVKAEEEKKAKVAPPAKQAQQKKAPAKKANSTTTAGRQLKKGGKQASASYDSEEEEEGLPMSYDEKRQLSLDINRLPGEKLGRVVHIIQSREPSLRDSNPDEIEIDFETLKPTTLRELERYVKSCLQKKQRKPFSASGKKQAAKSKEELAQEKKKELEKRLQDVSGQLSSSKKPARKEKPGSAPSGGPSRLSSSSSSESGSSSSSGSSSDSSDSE
experiment: Concentration-dependent BET degradation, immunoblot
Assay type: cell-based
Set-up: endogenous in cells; host or cells: HEK293 (CRL-1573), HeLa (CCL-2)
run.parameters: HeLa, Brd3, 4 h, 1 nM-10 μM

Answered examples (5):
| smiles.code | assay.system | meas.value |
| --- | --- | --- |
| Cc1sc2c(c1C)C(c1ccc(Cl)cc1)=N[C@@H](CC(=O)NCCOCCNC(=O)c1cc(SC(C)(C)C)c3ncc(C(=O)NCCc4nccs4)cc3c1)c1nnc(C)n1-2 | Brd3 (Homo sapiens) | ≤ 25% |
| Cc1sc2c(c1C)C(c1ccc(Cl)cc1)=N[C@@H](CC(=O)NCCCCNC(=O)c1cc(S)c3ncc(C(=O)NCCc4nccs4)cc3c1)c1nnc(C)n1-2 | Brd3 (Homo sapiens) | ≥ 71% |
| Cc1sc2c(c1C)C(c1ccc(Cl)cc1)=N[C@@H](CC(=O)NCCOCCNC(=O)c1cc(SC(=O)c3ccccc3)c3ncc(C(=O)NCCc4nccs4)cc3c1)c1nnc(C)n1-2 | Brd3 (Homo sapiens) | 26 to 50% |
| Cc1sc2c(c1C)C(c1ccc(Cl)cc1)=N[C@@H](CC(=O)NCCCCNC(=O)c1cc(SC(=O)c3ccccc3)c3ncc(C(=O)NCCc4nccs4)cc3c1)c1nnc(C)n1-2 | Brd3 (Homo sapiens) | 51 to 70% |
| Cc1sc2c(c1C)C(c1ccc(Cl)cc1)=N[C@@H](CC(=O)NCCCCNC(=O)c1cc(S)c3ncc(C(=O)NCc4ccc(F)cc4)cc3c1)c1nnc(C)n1-2 | Brd3 (Homo sapiens) | ≤ 25% |

What Dmax value was documented for this compound, Cc1sc2c(c1C)C(c1ccc(Cl)cc1)=N[C@@H](CC(=O)NCCOCCNC(=O)c1cc(S)c3ncc(C(=O)NCCc4nccs4)cc3c1)c1nnc(C)n1-2 ? 51 to 70%

====

assay.system: Brd2 (Homo sapiens, UniProt P25440)
Sequence (P25440 whole entry): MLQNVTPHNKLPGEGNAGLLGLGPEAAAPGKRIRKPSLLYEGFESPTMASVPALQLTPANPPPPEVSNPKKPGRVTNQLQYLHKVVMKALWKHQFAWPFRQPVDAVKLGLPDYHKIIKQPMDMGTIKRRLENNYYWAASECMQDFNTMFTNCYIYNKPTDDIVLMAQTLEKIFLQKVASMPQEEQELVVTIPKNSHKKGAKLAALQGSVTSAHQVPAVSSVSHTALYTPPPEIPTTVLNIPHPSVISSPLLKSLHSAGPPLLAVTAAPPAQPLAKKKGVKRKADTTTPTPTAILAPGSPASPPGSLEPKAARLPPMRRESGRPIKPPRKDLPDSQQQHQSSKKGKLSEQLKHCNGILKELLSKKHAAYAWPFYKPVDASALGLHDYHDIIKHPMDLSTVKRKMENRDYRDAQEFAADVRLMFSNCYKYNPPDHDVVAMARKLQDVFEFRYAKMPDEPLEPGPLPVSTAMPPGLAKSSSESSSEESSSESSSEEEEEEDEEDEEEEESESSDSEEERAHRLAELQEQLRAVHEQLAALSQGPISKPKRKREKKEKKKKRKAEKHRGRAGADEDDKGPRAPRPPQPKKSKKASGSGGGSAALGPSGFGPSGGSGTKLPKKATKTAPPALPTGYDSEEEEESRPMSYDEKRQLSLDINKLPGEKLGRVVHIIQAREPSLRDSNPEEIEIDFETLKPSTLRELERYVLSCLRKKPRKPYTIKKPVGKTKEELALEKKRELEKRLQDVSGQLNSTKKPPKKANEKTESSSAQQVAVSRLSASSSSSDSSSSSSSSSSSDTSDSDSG
experiment: Concentration-dependent BET degradation, immunoblot
Type: cell-based
Design: endogenous in cells; host or cells: HEK293 (CRL-1573), HeLa (CCL-2)
run.parameters: HEK293, Brd2, 4 h, 1 nM-10 μM
Entries and their Dmax values follow.

| compound | Dmax |
| --- | --- |
| Cc1sc2c(c1C)C(c1ccc(Cl)cc1)=N[C@@H](CC(=O)NCCOCCNC(=O)c1cc(SC(C)(C)C)c3ncc(C(=O)NCCc4nccs4)cc3c1)c1nnc(C)n1-2 [Example 11JQ17] | ≤ 25% |
| Cc1sc2c(c1C)C(c1ccc(Cl)cc1)=N[C@@H](CC(=O)NCCCCNC(=O)c1cc(S)c3ncc(C(=O)NCc4ccc(F)cc4)cc3c1)c1nnc(C)n1-2 [Example 11JQ12] | 26 to 50% |

Item under review: Cc1sc2c(c1C)C(c1ccc(Cl)cc1)=N[C@@H](CC(=O)NCCOCCNC(=O)c1cc(S)c3ncc(C(=O)NCCc4nccs4)cc3c1)c1nnc(C)n1-2 [Example 11JQ1] . Reported Dmax? ≥ 71%

Name the reported Dmax value associated with the compound Cc1sc2c(c1C)C(c1ccc(Cl)cc1)=N[C@@H](CC(=O)NCCCCNC(=O)c1cc(S)c3ncc(C(=O)NCCc4nccs4)cc3c1)c1nnc(C)n1-2 [Example 11JQ7] ≥ 71%

Value lookup for Dmax; key = Cc1sc2c(c1C)C(c1ccc(Cl)cc1)=N[C@@H](CC(=O)NCCCCNC(=O)c1cc(SC(=O)c3ccccc3)c3ncc(C(=O)NCCc4nccs4)cc3c1)c1nnc(C)n1-2 [Example 11JQ16] ≥ 71%

Please report the recorded Dmax for Cc1sc2c(c1C)C(c1ccc(Cl)cc1)=N[C@@H](CC(=O)NCCOCCNC(=O)c1cc(SC(=O)c3ccccc3)c3ncc(C(=O)NCCc4nccs4)cc3c1)c1nnc(C)n1-2 [Example 11JQ15] . 26 to 50%
